- testSystem: T1, human beta CGRP (SEQ ID NO: 81) (human, not fully specified)
- T1 construct: also called human βCGRP; hβCGRP
- T1 peptide: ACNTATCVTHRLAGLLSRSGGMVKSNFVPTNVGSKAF
- assayOverview: SPR as in Example 5
propertyLabel: Kd (nM)
The answer is to be given in nM; state only the numeric part.

Exercise: Answer with the recorded Kd for the binder listed here: lipocalin mutein SEQ ID NO: 17 (designed binder, biotinylated by NHS chemistry for capture in SPR) QDSTSDLIPAPPLSKVPLQQNFQDNQFHGKWYVVGRAGNDVLREDKDPEKMEATIYELKEDKSYNVTDVGFVQKRCMYVTHTFVPGSQPGEFTLGNIESYPGVTSALVRVVSTDYNQHAMVFVKLVKQNRELFEITLYGRTKELTSELKENFIRFSKSLGLPENHIVFPVPIDQCIDGSAWSHPQFEK
Key: 0.003

Exercise: # return recorded Kd for entry cysteine-free lipocalin mutein SEQ ID NO: 32 (designed binder, biotinylated by NHS chemistry for capture in SPR) QDSTSDLIPAPPLSKVPLQQNFQDNQFQGKWYVVGWAGNTLLREDKDPIKMQAMIYELKEDKSYNVTWVYFADKKMNYHIETFVPGSQPGEFTLGTIKSYPGETPILVRVVSTNYNQHAMVFFKGVNQNREIFEIVLYGRTKELTNELKENFIRFSKSLGLPENHIVFPVPIDQYIDGSAWSHPQFEK
Key: 0.021

Exercise: Tell me measured Kd for cysteine-free lipocalin mutein SEQ ID NO: 29 (designed binder, biotinylated by NHS chemistry for capture in SPR) QDSTSDLIPAPPLSKVPLQQNFQDNQFQGKWYVVGRAGNDVLREDKDPEKMEATIYELKEDKSYNVTDVGFVQKRLMYVTHTFVPGSQPGEFTLGNIESYPGVTSALVRVVSTDYNQHAMVFVKLVKQNRELFEITLYGRTKELTSELKENFIRFSKSLGLPENHIVFPVPIDQIDGSAWSHPQFEK please.
Key: 0.05
